Molecular target: JAK3 (aa 795-1124) (Homo sapiens)
Sequence (P52333 795-1124): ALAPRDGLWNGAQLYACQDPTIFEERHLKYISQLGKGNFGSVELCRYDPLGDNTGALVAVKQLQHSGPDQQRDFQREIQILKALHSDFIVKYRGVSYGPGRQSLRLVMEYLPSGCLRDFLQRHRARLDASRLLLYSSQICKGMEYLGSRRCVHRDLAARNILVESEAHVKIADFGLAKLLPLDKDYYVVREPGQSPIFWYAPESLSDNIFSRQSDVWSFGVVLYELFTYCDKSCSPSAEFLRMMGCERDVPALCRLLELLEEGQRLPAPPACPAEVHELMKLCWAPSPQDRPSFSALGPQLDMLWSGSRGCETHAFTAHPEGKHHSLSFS
pIC50: −log10 of the molar value.

[
  {
    "substance-smiles": "O=C(O)c1cccc(C(=O)Nc2cc(Nc3cnccn3)nc(-c3ccnc(N4CCNCC4)c3)c2)c1",
    "tested-system": "JAK3 (aa 795-1124) (Homo sapiens)",
    "pIC50": "6.00 to 7.00"
  },
  {
    "substance-smiles": "O=C(O)c1ccc(C(=O)Nc2cc(Nc3cnccn3)nc(-c3ccnc(N4CCNCC4)c3)c2)cc1",
    "tested-system": "JAK3 (aa 795-1124) (Homo sapiens)",
    "pIC50": "6.00 to 7.00"
  },
  {
    "substance-smiles": "O=C(O)C[C@H](Cc1ccccc1)C(=O)Nc1cc(Nc2cnccn2)nc(-c2ccnc(N3CCNCC3)c2)c1",
    "tested-system": "JAK3 (aa 795-1124) (Homo sapiens)",
    "pIC50": "6.00 to 7.00"
  },
  {
    "substance-smiles": "COc1cccc(CC(=O)Nc2cc(Nc3cnccn3)nc(-c3ccnc(N4CCNCC4)c3)c2)c1",
    "tested-system": "JAK3 (aa 795-1124) (Homo sapiens)",
    "pIC50": "6.00 to 7.00"
  },
  {
    "substance-smiles": "O=C(Nc1cc(Nc2cnccn2)nc(-c2ccnc(N3CCNCC3)c2)c1)c1cccnc1",
    "tested-system": "JAK3 (aa 795-1124) (Homo sapiens)",
    "pIC50": "6.00 to 7.00"
  }
]

###

Test system: LAD2 cells
Assay: LAD2 cells assay (degranulation, β-hexosaminidase release)
Format: cell-based
Details: Homo sapiens, LAD2, 0.5 h, read-out: LAD2IC50(nM)

[
  {
    "molecule": "Nc1cc(Nc2cnccn2)nc(-c2cncc(N3CCNCC3)c2)c1 [Example 138]",
    "readout-units": "nM",
    "IC50": 150
  }
]

###

Tested on: LAD2 cells
Test: LAD2 cells assay (degranulation, β-hexosaminidase release)
Type: cell-based
Details: Homo sapiens, 0.5 h; IgE-sensitized LAD2 cells, 30 min with compound, activated with 125 ng/ml streptavidin; released β-hexosaminidase; read-out: LAD2IC50
Overview of reported IC50 across a group of compounds:
assay-readout: IC50 (nM)

[
  {
    "substance-smiles": "CC(=O)Nc1cc(Nc2cnccn2)nc(-c2ccnc(N3CCNCC3)c2)c1",
    "assay-readout": "IC50",
    "experimental-value": 117
  },
  {
    "substance-smiles": "COC(=O)c1cccc(C(=O)Nc2cc(Nc3cnccn3)nc(-c3ccnc(N4CCNCC4)c3)c2)c1",
    "assay-readout": "IC50",
    "experimental-value": 330
  },
  {
    "substance-smiles": "O=C(CCc1ccccc1)Nc1cc(Nc2cnccn2)nc(-c2ccnc(N3CCNCC3)c2)c1",
    "assay-readout": "IC50",
    "experimental-value": 280
  },
  {
    "substance-smiles": "NCCc1cccc(-c2cccc(Nc3cc(C(F)(F)F)ccn3)n2)c1",
    "assay-readout": "IC50",
    "experimental-value": 186
  },
  {
    "substance-smiles": "O=C(Cc1cccnc1)Nc1cc(Nc2cnccn2)nc(-c2ccnc(N3CCNCC3)c2)c1",
    "assay-readout": "IC50",
    "experimental-value": 350
  },
  {
    "substance-smiles": "FC(F)(F)c1ccnc(Nc2cccc(-c3ccnc(N4CCNCC4)c3)n2)c1",
    "assay-readout": "IC50",
    "experimental-value": 206
  },
  {
    "substance-smiles": "FC(F)(F)c1ccnc(Nc2cccc(-c3cccc(N4CCNCC4)c3)n2)c1",
    "assay-readout": "IC50",
    "experimental-value": 331
  },
  {
    "substance-smiles": "COc1ccc(C(=O)Nc2cc(Nc3cnccn3)nc(-c3ccnc(N4CCNCC4)c3)c2)cc1",
    "assay-readout": "IC50",
    "experimental-value": 430
  },
  {
    "substance-smiles": "O=C(Nc1cc(Nc2cnccn2)nc(-c2ccnc(N3CCNCC3)c2)c1)c1cncnc1",
    "assay-readout": "IC50",
    "experimental-value": 320
  },
  {
    "substance-smiles": "C1=C(c2cccc(-c3cccc(Nc4cnccn4)n3)c2)CCNC1",
    "assay-readout": "IC50",
    "experimental-value": 183
  },
  {
    "substance-smiles": "O=C(O)C[C@H](Cc1ccccc1)NC(=O)c1cccc(C(=O)Nc2cc(Nc3cnccn3)nc(-c3ccnc(N4CCNCC4)c3)c2)c1",
    "assay-readout": "IC50",
    "experimental-value": 100
  },
  {
    "substance-smiles": "O=C(Nc1cc(Nc2cnccn2)nc(-c2ccnc(N3CCNCC3)c2)c1)c1cccnc1",
    "assay-readout": "IC50",
    "experimental-value": 123
  },
  {
    "substance-smiles": "O=C(C[C@H](Cc1ccccc1)C(=O)O)Nc1cc(Nc2cnccn2)nc(-c2ccnc(N3CCNCC3)c2)c1",
    "assay-readout": "IC50",
    "experimental-value": 82
  },
  {
    "substance-smiles": "FC(F)(F)c1ccnc(Nc2cccc(-c3cccc(C4CCNCC4)c3)n2)c1",
    "assay-readout": "IC50",
    "experimental-value": 368
  },
  {
    "substance-smiles": "O=C(Nc1cc(Nc2cnccn2)nc(-c2ccnc(N3CCNCC3)c2)c1)c1ccc(C(=O)O)nc1",
    "assay-readout": "IC50",
    "experimental-value": 200
  },
  {
    "substance-smiles": "Cc1ccnc(Nc2cccc(-c3ccnc(N4CCNCC4)c3)n2)c1",
    "assay-readout": "IC50",
    "experimental-value": 70
  },
  {
    "substance-smiles": "Nc1cc(Nc2cnccn2)nc(-c2ccnc(N3CCNCC3)c2)c1",
    "assay-readout": "IC50",
    "experimental-value": 118
  }
]

src = patent EP2441755A1
